Ref: patent US20210032312A1

testTarget: T1, cynomolgus monkey CD8A on primary cynomolgus monkey CD8+ T cells (cynomolgus monkey, UniProt P01732 23-235 (human entry))
T1 construct: also called Cyno CD8alpha
T1 sequence (P01732 other isoform, or with tags, fused parts or gaps limits assumed): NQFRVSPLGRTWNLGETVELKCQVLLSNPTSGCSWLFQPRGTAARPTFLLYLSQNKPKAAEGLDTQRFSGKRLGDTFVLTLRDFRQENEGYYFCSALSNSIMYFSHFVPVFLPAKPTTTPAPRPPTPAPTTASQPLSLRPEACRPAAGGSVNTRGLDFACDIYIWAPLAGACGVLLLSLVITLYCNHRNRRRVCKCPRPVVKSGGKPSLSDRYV
protocolText: flow cytometry, cyno CD8+ T cells, 2 uM FN3
Method: Binding of the 190 ELISA hits to human and cynomologous monkey primary CD8 T cells was assessed by flow cytometry. The FN3 domain molecules were diluted to 2 μM and 0.2 μM in PBS and incubated with human or cynomologous monkey CD8+ T cells in 96-well format. […] Cells were gating on live cells and median fluorescence intensity of the bound Centyrins (PE channel) was calculated using Cytobank software.

binder	Cyno T-cell Binding 2 uM (MFI)
P282FR9P1361_D3 (designed binder, FN3 domain) LPAPKNLVVSRVTEDSARLSWTAPDAAFDSFDIWYAEYGYPGEAIVLTVPGSERSYDLTGLNPGTEYDVAISGVKGGPRSYPLSAIFTT	14800
P282BR9P1357_D2 (designed binder, FN3 domain) LPAPKNLVVSRVTEDSARLSWIKDGHPRHFDSFLIQYQESEKVGEAIVLTVPGSERSYDLTGLKPGTEYTVSIYGVDVVYDRGQLISSNPLSAIFTT	25800
P283BR9P1363_B2 (designed binder, FN3 domain) LPAPKNLVVSRVTEDSARLSWASTVDPHPRFDSFLIQYQESEKVGEAIVLTVPGSERSYDLTGLKPGTEYTVSIYGVDVKYDIDSRPISSNPLSAIFTT	14800
